# Tested System: porcine epidemic diarrhea virus spike (PEDV S) protein (Porcine epidemic diarrhea virus, UniProt Q91AV1)
# Sequence (Q91AV1 26-1383): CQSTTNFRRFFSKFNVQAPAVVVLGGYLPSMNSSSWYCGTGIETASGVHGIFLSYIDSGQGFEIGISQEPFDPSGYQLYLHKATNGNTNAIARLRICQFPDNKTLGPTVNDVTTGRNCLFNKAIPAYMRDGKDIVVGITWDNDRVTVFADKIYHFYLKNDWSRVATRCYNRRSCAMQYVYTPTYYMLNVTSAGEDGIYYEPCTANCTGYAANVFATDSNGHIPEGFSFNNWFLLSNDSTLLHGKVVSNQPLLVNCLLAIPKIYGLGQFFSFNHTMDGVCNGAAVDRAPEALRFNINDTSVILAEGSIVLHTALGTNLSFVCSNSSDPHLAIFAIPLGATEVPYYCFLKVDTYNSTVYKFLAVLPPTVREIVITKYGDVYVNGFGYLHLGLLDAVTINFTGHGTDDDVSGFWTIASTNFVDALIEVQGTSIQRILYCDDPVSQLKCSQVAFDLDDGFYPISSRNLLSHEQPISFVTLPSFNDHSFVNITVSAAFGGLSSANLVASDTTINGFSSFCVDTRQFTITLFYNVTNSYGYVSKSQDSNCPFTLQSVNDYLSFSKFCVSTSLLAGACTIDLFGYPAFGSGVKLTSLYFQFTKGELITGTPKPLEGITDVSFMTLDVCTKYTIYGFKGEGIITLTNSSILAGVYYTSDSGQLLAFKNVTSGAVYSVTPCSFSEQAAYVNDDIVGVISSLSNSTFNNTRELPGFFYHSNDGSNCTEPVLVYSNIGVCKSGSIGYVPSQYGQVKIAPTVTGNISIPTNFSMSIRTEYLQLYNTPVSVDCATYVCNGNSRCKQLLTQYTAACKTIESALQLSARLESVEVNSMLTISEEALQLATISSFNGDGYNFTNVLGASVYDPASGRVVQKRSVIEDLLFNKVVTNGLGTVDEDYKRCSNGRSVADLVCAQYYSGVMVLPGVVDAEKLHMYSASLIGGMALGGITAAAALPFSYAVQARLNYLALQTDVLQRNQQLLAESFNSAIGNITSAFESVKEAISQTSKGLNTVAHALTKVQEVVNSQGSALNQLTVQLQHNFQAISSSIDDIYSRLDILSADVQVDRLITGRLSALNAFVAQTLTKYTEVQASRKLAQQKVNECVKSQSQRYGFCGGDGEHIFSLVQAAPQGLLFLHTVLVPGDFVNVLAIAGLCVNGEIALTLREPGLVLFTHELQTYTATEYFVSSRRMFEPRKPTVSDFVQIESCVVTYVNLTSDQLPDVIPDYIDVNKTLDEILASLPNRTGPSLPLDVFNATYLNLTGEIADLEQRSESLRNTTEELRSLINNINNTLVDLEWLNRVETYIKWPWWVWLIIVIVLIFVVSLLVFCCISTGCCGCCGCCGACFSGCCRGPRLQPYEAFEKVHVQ
# Assay Protocol: SPR affinity assay, KD of six-amino-acid peptides to PEDV S protein
# Format: binding
# Condition Context: SPR, peptide to PEDV S protein; value repeated on each docking-pose line of the peptide
No end group written: not given here.
Mark YES only when Kd stays strictly below 60 µM. Values equal to the cut-off are NO.

FWKYNT [DPL_1023] = YES
FWKFNE [DPL_1027] = YES
FWKHRI [DPL_1029] = YES
FWKYAW [DPL_1028] = YES

Lab log: compare recorded Kd with 60 µM; is it strictly lower for FWKCDV [DPL_1022] ?
NO

Lab log: compare recorded Kd with 60 µM; is it strictly lower for FWKHEK [DPL_1025] ?
NO

Lab log: compare recorded Kd with 60 µM; is it strictly lower for FWKLWS [DPL_1024] ?
YES

Lab log: compare recorded Kd with 60 µM; is it strictly lower for FWKWWW [DPL_1026] ?
YES
